# procedureDetails: NCI Yeast Anticancer Drug Screen. Data for the rad50 strain (AID 155);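 note: 0% = growth of vehicle-only cultures of the same strain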
# reportedConditions: S. cerevisiae rad50 strain growth inhibition; at 50.0 µM (retest, dose inferred, filed as 5.0); active compounds read high
# Description: Growth inhibition of yeast strains with defined genetic alterations is measured as a screen for potential anti-cancer activity. Selected strains with alterations in DNA damage repair or cell cycle control were exposed to compounds and growth inhibition was measured relative to vehicle treated controls. The strain used in this assay is rad50
This is part of a sample that, as a whole, favours compounds with a hit. Of some 79,000 tested, about 15% had one in any assay.
readoutName: growth inhibition (%)
Please give a number only; it is taken to be in %.

[ask] May I ask what growth inhibition has been recorded for ON1CCc2c([nH]c3ccccc23)C1c1ccc(Cl)cc1 (stereo not drawn) ?
[reply] 93

---
[ask] May I ask what growth inhibition has been recorded for C/C(=N/NC(N)=O)C1CC(CCC2([N+](=O)[O-])CCC(C)(O)C(/C(C)=N\NC(N)=O)C2)([N+](=O)[O-])CCC1(C)O (stereo not drawn) ?
[reply] -5

[ask] Param item: Cc1[nH]c2ccccc2c1SCc1ccccc1
[reply] 99

[ask] Param item: O=C(CC(=O)c1ccccc1)CC(=O)c1cccc(Cl)c1
[reply] 87

[ask] Param item: Clc1cccc(C2SCc3nc4ccccc4n32)c1Cl (stereo not drawn)
[reply] 97

###

# procedureDetails: NCI Yeast Anticancer Drug Screen. Data for the rad50 strain (AID 155);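 note: 0% = growth of vehicle-only cultures of the same strain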
# reportedConditions: S. cerevisiae rad50 strain growth inhibition; at 5.0 µM (retest, dose inferred, filed as 0.5); active compounds read high
This is part of a sample that, as a whole, favours compounds with a hit. Of some 79,000 tested, about 15% had one in any assay.
readoutName: growth inhibition (%)
Please give a number only; it is taken to be in %.

[ask] May I ask what growth inhibition has been recorded for CCC(C)OC(=O)Nc1cccc(Cl)c1 (configuration not stated) ?
[reply] 12

[ask] Param item: O=C1C/C(=C\c2ccccc2)C(=O)c2ccccc2N1
[reply] 0

[ask] Param item: O=C1/C(=C/c2ccc(Cl)cc2)CSC/C1=C\c1ccc(Cl)cc1
[reply] 23

[ask] Param item: COc1cc[c]([Sn]([O][Sn]([Cl])([c]2ccc(OC)cc2)[c]2ccc(OC)cc2)[c]2ccc(OC)cc2)cc1
[reply] 47

[ask] Param item: CCC(=O)C(CC)(c1ccc(OC(C)=O)cc1)c1ccc(OC(C)=O)cc1
[reply] 13

[ask] Param item: CCOc1nc(N)nc(C)c1N=Nc1ccc(Cl)cc1Cl
[reply] 10

[ask] Param item: Cc1c2ccncc2c(C)c2c1sc1ccccc12
[reply] 83

[ask] Param item: Brc1ccc(N=Nc2ccc(-c3ccc[cH-]3)cc2)cc1.[Fe+2].c1cc[cH-]c1
[reply] 3

---
[ask] May I ask what growth inhibition has been recorded for Nc1nn2c(C(Br)Br)cc(C(Br)Br)nc2c1[N+](=O)[O-] ?
[reply] 100

[ask] Param item: O=c1c(Cl)c(Cl)oc(Cl)c1Cl
[reply] 42

[ask] Param item: CN(C)CCCNCC(=O)Nc1ccc(S(=O)(=O)c2ccc(NC(=O)CNCCCN(C)C)cc2)cc1
[reply] 2

[ask] Param item: CC(C)(C)NCc1cc(C(C)(C)C)cc(-c2ccc(Cl)cc2)c1O
[reply] 26

[ask] Param item: O=C(COc1ccccc1)Oc1c(Cl)c(Cl)c(Cl)c(Cl)c1Cl
[reply] 23
